Biological target: IGF2 (Homo sapiens, UniProt P01344)
Sequence (P01344 25-91): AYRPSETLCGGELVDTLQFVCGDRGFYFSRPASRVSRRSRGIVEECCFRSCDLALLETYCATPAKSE
Experiment: SPR (Biacore T200) of recombinant IGF2R domain 11 mutants on immobilised biotinylated IGF2
Format: binding
Set-up: purchased GroPep
Details: Table 3; 25° C., HBS-EP pH 7.4
# reported Kinetics kon; entries follow
Give the number; M⁻¹ s⁻¹ is assumed, so skip it.

molecule	assay_result
AB3 Q1569R P1597H S1602H: domain 11 AB3 + Q1569R, P1597H, S1602H (protein) MKSNEHDDCQVTNPSTGHLFDLSSLSGRAGFTAAYSKSGVVYMSICGENENCPPGVGACFGRTRISVGKANKRLRYVDQVLQLVYKDGSHCPSKHGLSYKSVISFVCRPEAGPTNRPMLISLDKQTCTLFFSWHTPLACEQATECSV	1.41e+07
AB3 Q1569R P1597H S1602H G1603K: domain 11 AB3 + Q1569R, P1597H, S1602H, G1603K (protein) MKSNEHDDCQVTNPSTGHLFDLSSLSGRAGFTAAYSKSGVVYMSICGENENCPPGVGACFGRTRISVGKANKRLRYVDQVLQLVYKDGSHCPSKHKLSYKSVISFVCRPEAGPTNRPMLISLDKQTCTLFFSWHTPLACEQATECSV	1.75e+07
AB5 P1597H: domain 11 AB5 + P1597H (protein) MKSNEHDDCQVTNPSTGHLFDLSSLSGRAGFTAAYAKGWGVYMSICGENENCPPGVGACFGQTRISVGKANKRLRYVDQVLQLVYKDGSHCPSKSGLSYKSVISFVCRPEAGPTNRPMLISLDKQTCTLFFSWHTPLACEQATECSV	3.68e+06
AB3 Q1569R P1597H: domain 11 AB3 + Q1569R, P1597H (protein) MKSNEHDDCQVTNPSTGHLFDLSSLSGRAGFTAAYSKSGVVYMSICGENENCPPGVGACFGRTRISVGKANKRLRYVDQVLQLVYKDGSHCPSKSGLSYKSVISFVCRPEAGPTNRPMLISLDKQTCTLFFSWHTPLACEQATECSV	1.89e+07
AB3 P1597H K1631W: domain 11 AB3 + P1597H, K1631W (protein) MKSNEHDDCQVTNPSTGHLFDLSSLSGRAGFTAAYSKSGVVYMSICGENENCPPGVGACFGQTRISVGKANKRLRYVDQVLQLVYKDGSHCPSKSGLSYKSVISFVCRPEAGPTNRPMLISLDWQTCTLFFSWHTPLACEQATECSV	1.97e+07

For AB5 Q1569R P1597H K1631W: domain 11 AB5 + Q1569R, P1597H, K1631W (protein) MKSNEHDDCQVTNPSTGHLFDLSSLSGRAGFTAAYAKGWGVYMSICGENENCPPGVGACFGRTRISVGKANKRLRYVDQVLQLVYKDGSHCPSKSGLSYKSVISFVCRPEAGPTNRPMLISLDWQTCTLFFSWHTPLACEQATECSV , what is its reported Kinetics kon?
1.12e+07

Which Kinetics kon value belongs to AB5 P1597H S1602H: domain 11 AB5 + P1597H, S1602H (protein) MKSNEHDDCQVTNPSTGHLFDLSSLSGRAGFTAAYAKGWGVYMSICGENENCPPGVGACFGQTRISVGKANKRLRYVDQVLQLVYKDGSHCPSKHGLSYKSVISFVCRPEAGPTNRPMLISLDKQTCTLFFSWHTPLACEQATECSV ?
3.5e+06

What value of measured Kinetics kon is listed for AB5 Q1569R P1597H G1603K: domain 11 AB5 + Q1569R, P1597H, G1603K (protein) MKSNEHDDCQVTNPSTGHLFDLSSLSGRAGFTAAYAKGWGVYMSICGENENCPPGVGACFGRTRISVGKANKRLRYVDQVLQLVYKDGSHCPSKSKLSYKSVISFVCRPEAGPTNRPMLISLDKQTCTLFFSWHTPLACEQATECSV ?
6.67e+06

Which Kinetics kon is reported for this molecule? AB3 P1597H: domain 11 AB3 + FG loop P1597H (protein) MKSNEHDDCQVTNPSTGHLFDLSSLSGRAGFTAAYSKSGVVYMSICGENENCPPGVGACFGQTRISVGKANKRLRYVDQVLQLVYKDGSHCPSKSGLSYKSVISFVCRPEAGPTNRPMLISLDKQTCTLFFSWHTPLACEQATECSV
1.06e+07

Give its Kinetics kon value. Item: AB5 P1597K: domain 11 AB5 + P1597K (protein) MKSNEHDDCQVTNPSTGHLFDLSSLSGRAGFTAAYAKGWGVYMSICGENENCPPGVGACFGQTRISVGKANKRLRYVDQVLQLVYKDGSKCPSKSGLSYKSVISFVCRPEAGPTNRPMLISLDKQTCTLFFSWHTPLACEQATECSV
9.54e+06

What does the data say about its Kinetics kon? Entry: AB5 P1597N: domain 11 AB5 + P1597N (protein) MKSNEHDDCQVTNPSTGHLFDLSSLSGRAGFTAAYAKGWGVYMSICGENENCPPGVGACFGQTRISVGKANKRLRYVDQVLQLVYKDGSNCPSKSGLSYKSVISFVCRPEAGPTNRPMLISLDKQTCTLFFSWHTPLACEQATECSV
4.72e+06
